- targetEntity: Sulfhydryl oxidase 1 (Homo sapiens)
- assayExplanation: inhibition of human sulfhydryl oxidase QSOX1 – biochemical, HyperBlu H2O2 luminescence, HTS, primary screen (AID 1347420); further: values above 100% were filed as inconclusive
- settings: recombinant QSOX1, HyperBlu H2O2 luminescence; at 12.5 µM; active compounds read high; active = any value above zero
Hit rate of the full screen: of about 1,300 compounds, about 980 (75%) were called active. Not shown: some 4% with an inconclusive outcome. The list shows a part of the results.
measuredEndpoint: inhibition (%)
Answers are plain numbers, in %.

The following molecules have reported results that may help.
• CC(C)C(=O)c1c(C(C)C)nn2ccccc12 = 12.7
• C#CCN1C(C)=C(C(=O)OC)C(c2cccc([N+](=O)[O-])c2)C(C(=O)OCC)=C1C (stereo not drawn) = 7.8
• CC(C)NC[C@H](O)COc1ccc(CC(N)=O)cc1 = -4.6

Go through the items and report each one's inhibition.
1. CNCCNS(=O)(=O)c1cccc2cnccc12
2. CCCCCCCCCC[Si](C)(C)CCC(=O)NC(Cc1ccc(C)cc1)c1ccccc1 (stereo not drawn)
3. O=P(O)(O)C(Cl)(Cl)P(=O)(O)O
4. NC(=S)c1ccc[n+]([C@@H]2O[C@@H](COP(=O)([O-])OP(=O)(O)OC[C@H]3O[C@@H](n4cnc5c(N)ncnc54)C(OP(=O)(O)O)[C@H]3O)C(O)C2O)c1 (stereo partly drawn)
5. CC(=O)[C@H]1CC[C@H]2[C@@H]3CCC4=CC(=O)CC[C@]4(C)[C@H]3CC[C@]12C
6. CCN(c1nc(N)c(C(=O)N=C(N)N)nc1Cl)C(C)C
7. COCCc1ccc(OCC(O)CNC(C)C)cc1 (stereo not drawn)
8. Oc1ccc(/C=C/c2ccc(/C=C/c3ccc(O)cc3)c(Br)c2)cc1

1: 3.8; 2: 19.6; 3: -4.1; 4: 4.8; 5: 12.3; 6: 22.6; 7: -17.5; 8: -1.9

Respectfully, I request inhibition for each entry included below.
1. CCOC(=O)C1=C(C)NC(C)=C(C(=O)OC)C1c1cccc([N+](=O)[O-])c1 (stereo not drawn)
2. CC(N)=O
3. C[C@]12CCC(=O)C=C1CC[C@@H]1[C@@H]2CC[C@@]2(C)[C@H]1CC[C@]2(O)C(=O)CO
4. NC(N)=NCc1cccc(I)c1

[14, 37.1, -11, 0.4]

Record inhibition for all entries; do not skip any.
1. O=C(c1ccc2c(c1)OCCO2)N1CCCCC1
2. C=C[C@@]1(C)CC(=O)[C@]2(O)[C@@]3(C)[C@H](O)CCC(C)(C)[C@@H]3[C@H](O)[C@H](OC(C)=O)[C@@]2(C)O1

[5.6, -4.2]

Count: 6. Required value per item: inhibition.
1. CCN(CC)c1ncnc2c1ncn2[C@@H]1O[C@H](COP(=O)(O)OP(=O)(O)C(Br)(Br)P(=O)(O)O)[C@@H](O)[C@H]1O
2. CC(C)(C)NCC(O)COc1cccc2[nH]c(=O)[nH]c12 (stereo not drawn)
3. CC(=O)[C@@]1(O)CC[C@H]2[C@@H]3CCC4=CC(=O)CC[C@]4(C)[C@H]3CC[C@@]21C
4. CC12CC3CC(C)(C1)CC(N)(C3)C2
5. C[C@]12CCC(=O)C=C1CC[C@@H]1[C@@H]2[C@@H](O)C[C@@]2(C)[C@H]1CC[C@]2(O)C(=O)CO
6. CCn1c(=O)[nH]c2cc(Cl)c(Cl)cc21

[-3, 14, 0.7, -1.7, 9, 20.4]
